- target_or_test_system: p38β (Homo sapiens)
- Construct: Human recombinant p38α and p38β isoforms were produced as 5′ c-myc, 6His tagged proteins; fused on or other part: N-terminal c-myc and 6His tags
- Sequence (Q15759 whole entry, the tested form may be a part, canonical isoform): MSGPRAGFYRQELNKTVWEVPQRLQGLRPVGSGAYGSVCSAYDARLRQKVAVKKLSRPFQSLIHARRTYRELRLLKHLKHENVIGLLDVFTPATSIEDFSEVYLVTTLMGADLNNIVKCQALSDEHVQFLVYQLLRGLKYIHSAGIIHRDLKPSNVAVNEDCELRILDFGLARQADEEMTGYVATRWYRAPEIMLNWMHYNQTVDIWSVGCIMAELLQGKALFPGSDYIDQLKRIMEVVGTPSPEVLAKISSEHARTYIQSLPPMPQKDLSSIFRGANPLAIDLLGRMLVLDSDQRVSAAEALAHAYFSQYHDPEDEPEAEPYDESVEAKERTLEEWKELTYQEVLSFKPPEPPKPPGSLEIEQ
- assay_comment: In vitro enzyme assay, p38β
- Format: biochemical
- test_conditions: read-out: IC50 against p38β
pIC50: −log10 of the molar value.
quantity: pIC50

Fill in: pIC50 of CN(C)CCCN(C)c1ccc2ncn(-c3cccc(NC(=O)c4ccnc(N5CCOCC5)c4)c3)c(=O)c2c1 is ___
~7.30

These entries and their values trace back to patent US7008945B1.
